species: Rattus norvegicus; assay: DrugMatrix - Regimen: Daily Repeat; format: toxicity, organism-based, Sprague-Dawley; parameters: regimen Daily Repeat, gender Male, age 6-8 weeks; settings: in vivo, ip, 0 mg/kg, […], tissue Blood, route intraperitoneal, dose level Control, time 14 day, vehicle 100 % SALINE
measurement_label: ABSOLUTE BASOPHIL (cells/µL)

[
  {
    "sequence_string": "GENTAMICIN",
    "measurement_label": "ABSOLUTE BASOPHIL",
    "scale_unit": "cells/µL",
    "reading": 130
  }
]

====

As shown below, each of these compounds has a reported CREATININE value.
species: Rattus norvegicus; test: DrugMatrix - Regimen: Daily Repeat; assay type: toxicity, organism-based, Sprague-Dawley; design: regimen Daily Repeat, gender Male, age 6-8 weeks; details: in vivo, po, 50 mg/kg, 120 h, tissue Plasma, route oral GAVAGE, dose level Low, time 5 day, vehicle .5 % CMC

[
  {
    "compound": "CN(C)[C@@H]1C(O)=C(C(N)=O)C(=O)[C@@]2(O)C(O)=C3C(=O)c4c(O)ccc(Cl)c4[C@@](C)(O)[C@H]3C[C@@H]12",
    "CREATININE": "0.2 mg/dL"
  },
  {
    "compound": "NC1CCN(c2nc3c(cc2F)c(=O)c(C(=O)O)cn3-c2ccc(F)cc2F)C1 (centres undefined)",
    "CREATININE": "0.5 mg/dL"
  },
  {
    "compound": "Cc1cccc(C)c1OCC(C)N (centres undefined)",
    "CREATININE": "0.19 mg/dL"
  },
  {
    "compound": "CCN1CCC[C@H]1CNC(=O)c1cc(S(N)(=O)=O)ccc1OC [LEVOSULPIRIDE]",
    "CREATININE": "0.57 mg/dL"
  }
]

====

species on record: Rattus norvegicus; test: DrugMatrix - Regimen: Daily Repeat; format: toxicity, organism-based, Sprague-Dawley; set-up: regimen Daily Repeat, gender Male, age 6-8 weeks; conditions: in vivo, po, 0 mg/kg, 72 h, tissue Plasma, route oral GAVAGE, dose level Control, time 3 day, vehicle .5 % CMC
measurement_label: ALANINE AMINOTRANSFERASE (u/L)

[
  {
    "compound": "NC1CCN(c2nc3c(cc2F)c(=O)c(C(=O)O)cn3-c2ccc(F)cc2F)C1 (stereo not drawn)",
    "measurement_label": "ALANINE AMINOTRANSFERASE",
    "scale_unit": "u/L",
    "reading": 39.33
  },
  {
    "compound": "CCN(CC)CCOc1ccc(/C(=C(/Cl)c2ccccc2)c2ccccc2)cc1",
    "measurement_label": "ALANINE AMINOTRANSFERASE",
    "scale_unit": "u/L",
    "reading": 43.83
  },
  {
    "compound": "C[C@H]1O[C@@H](n2cc(F)c(=O)[nH]c2=O)[C@H](O)[C@@H]1O",
    "measurement_label": "ALANINE AMINOTRANSFERASE",
    "scale_unit": "u/L",
    "reading": 55
  },
  {
    "compound": "CC(=O)Oc1ccc(C(c2ccc(OC(C)=O)cc2)c2ccccn2)cc1",
    "measurement_label": "ALANINE AMINOTRANSFERASE",
    "scale_unit": "u/L",
    "reading": 38.83
  },
  {
    "compound": "O=C1Nc2ccc(Cl)cc2C(c2ccccc2Cl)=NC1O (stereo not drawn)",
    "measurement_label": "ALANINE AMINOTRANSFERASE",
    "scale_unit": "u/L",
    "reading": 49.67
  },
  {
    "compound": "Clc1ccccc1CN1CCc2sccc2C1",
    "measurement_label": "ALANINE AMINOTRANSFERASE",
    "scale_unit": "u/L",
    "reading": 38.17
  },
  {
    "compound": "CN(C/C=C/C#CC(C)(C)C)Cc1cccc2ccccc12",
    "measurement_label": "ALANINE AMINOTRANSFERASE",
    "scale_unit": "u/L",
    "reading": 39.33
  },
  {
    "compound": "CNCCC(Oc1ccc(C(F)(F)F)cc1)c1ccccc1 (stereo not drawn)",
    "measurement_label": "ALANINE AMINOTRANSFERASE",
    "scale_unit": "u/L",
    "reading": 36.5
  },
  {
    "compound": "O=C1CN=C(c2ccccc2Cl)c2cc([N+](=O)[O-])ccc2N1",
    "measurement_label": "ALANINE AMINOTRANSFERASE",
    "scale_unit": "u/L",
    "reading": 55
  },
  {
    "compound": "CN(C)[C@@H]1C(O)=C(C(N)=O)C(=O)[C@@]2(O)C(O)=C3C(=O)c4c(O)ccc(Cl)c4[C@@](C)(O)[C@H]3C[C@@H]12",
    "measurement_label": "ALANINE AMINOTRANSFERASE",
    "scale_unit": "u/L",
    "reading": 54.83
  },
  {
    "compound": "COc1ccc(C2C(=O)c3ccccc3C2=O)cc1",
    "measurement_label": "ALANINE AMINOTRANSFERASE",
    "scale_unit": "u/L",
    "reading": 38.17
  },
  {
    "compound": "Cn1c(=O)c2c(ncn2CC(O)CO)n(C)c1=O (stereo not drawn)",
    "measurement_label": "ALANINE AMINOTRANSFERASE",
    "scale_unit": "u/L",
    "reading": 54.83
  },
  {
    "compound": "O=C1C(CC[S+]([O-])c2ccccc2)C(=O)N(c2ccccc2)N1c1ccccc1 (stereo not drawn)",
    "measurement_label": "ALANINE AMINOTRANSFERASE",
    "scale_unit": "u/L",
    "reading": 49.67
  },
  {
    "compound": "COc1cc2nc(N3CCN(C(=O)c4ccco4)CC3)nc(N)c2cc1OC",
    "measurement_label": "ALANINE AMINOTRANSFERASE",
    "scale_unit": "u/L",
    "reading": 49.67
  },
  {
    "compound": "CC(C(=O)O)c1ccc2oc(-c3ccc(Cl)cc3)nc2c1 (stereo not drawn)",
    "measurement_label": "ALANINE AMINOTRANSFERASE",
    "scale_unit": "u/L",
    "reading": 42.83
  },
  {
    "compound": "COC1=C(OC)C(=O)C(CCCCCCCCCCO)=C(C)C1=O",
    "measurement_label": "ALANINE AMINOTRANSFERASE",
    "scale_unit": "u/L",
    "reading": 55
  },
  {
    "compound": "NCCCC(O)(P(=O)(O)O)P(=O)(O)O",
    "measurement_label": "ALANINE AMINOTRANSFERASE",
    "scale_unit": "u/L",
    "reading": 38.17
  },
  {
    "compound": "CN/C(=N/CCSCc1nc[nH]c1C)NC#N",
    "measurement_label": "ALANINE AMINOTRANSFERASE",
    "scale_unit": "u/L",
    "reading": 55
  }
]
